test system: S. aureus ATCC 25923; assay: Antibacterial activity, pre-exposure (planktonic cells and biofilm formation); type: cell-based, Staphylococcus aureus; conditions: pre-exposure, 15 µM, ± SD
Could you please report measured Average inhibition %, biofilms viability for the items listed next?
Reply numerically in %, unit not repeated.

Task: Note down Average inhibition %, biofilms viability recorded for CCCCCCCCc1ccc2cc(CC(N)(CO)CO)ccc2c1
Output: 99.3

Task: Please give the documented Average inhibition %, biofilms viability of CCCCCCCCCCOc1ccc(CCC(N)(CO)CO)cc1
Output: 34.9

Task: Read the entry CCCCCCCCCCc1ccc(CCC(N)(CO)CO)nc1 and write its reported Average inhibition %, biofilms viability.
Output: 95.2

Task: Output Average inhibition %, biofilms viability of CCCCCc1ccc(-c2ccc(CCC(N)(CO)CO)cc2)cc1
Output: 70.4

Task: State, in one line, measured Average inhibition %, biofilms viability of CCCCCC/C=C/c1ccc(CCC(N)(CO)CO)cc1
Output: 81.1

Task: Quickly give me recorded Average inhibition %, biofilms viability for CCCCCCCCc1ccc(CC(N)(CO)CO)cc1
Output: 76.2

---

Answer each item with its documented inhibition at 25 µM.
tested on: S. aureus ATCC 25923; test: Antibacterial activity, pre-exposure (planktonic cells and biofilm formation); format: cell-based, Staphylococcus aureus; conditions: Staphylococcus aureus, ATCC25923; pre-exposure, 25 µM, ± SD; read-out: Average inhibition %, planktonic cells turbidity
Give a bare numeral; the unit % is implied.

Task: Read off the recorded inhibition at 25 µM for CCCCCCCCc1ccc(CC(N)(CO)CO)cc1
Output: 99.1

Task: Annotate the molecule CCCCCCCCCCOc1ccc(CCC(N)(CO)CO)cc1 with its measured inhibition at 25 µM.
Output: 52

Task: Answer with reported inhibition at 25 µM of CCCCCCCCCCc1ccc(C(O)CC(N)(CO)CO)cc1 (stereo not drawn)
Output: 98.8

Task: Tell me measured inhibition at 25 µM for CCCCCCCCCCc1ccc2nc(CCC(N)(CO)CO)ccc2c1 please.
Output: 98.6

Task: Tell me inhibition at 25 µM reported for CCCCCCCCCCc1ccc(CCC(N)(CO)CO)nc1
Output: 99.1

Task: Identify the reported inhibition at 25 µM for the following entry. CCCCCC/C=C/c1ccc(CCC(N)(CO)CO)cc1
Output: 99.4

---

tested on: S. aureus P2; experiment: Antibacterial activity, pre-exposure; format: cell-based, Staphylococcus aureus; conditions: Staphylococcus aureus; S. aureus P2, pre-exposure, 25 µM, ± SD; read-out: Average inhibition %, biofilms biomass
value.kind: inhibition at 25 µM

Task: Output measured inhibition at 25 µM for this item: CCCCCCCCCCc1ccc(C(O)CC(N)(CO)CO)cc1 (stereo not drawn) [Compound 55]
Output: 91.6%

Task: Let me know recorded inhibition at 25 µM for CCCCCCCCc1ccc2nc(CCC(N)(CO)CO)ccc2c1 [Compound 80] , thanks.
Output: 90.6%

Task: Note down inhibition at 25 µM recorded for CCCCCCCCc1ccc2ccc(CC(N)(CO)CO)nc2c1 [Compound 82]
Output: 96.4%

Task: Give me measured inhibition at 25 µM, please, for this compound: CCCCCCCCCCc1ccc2nc(CCC(N)(CO)CO)ccc2c1 [Compound 81]
Output: 89.1%

Task: Check the records and state inhibition at 25 µM for CCCCCCCCc1ccc(CCC(N)(CO)CO)cc1 [fingolimod, Fingolimod]
Output: 98%

Task: Please report the measured inhibition at 25 µM for CCCCCCCCc1ccc2cc(CC(N)(CO)CO)ccc2c1 [Compound 79]
Output: 96.4%

Where do the numbers come from? From paper PMC8296573.
